- Organism: Rattus norvegicus
- assayProtocol: Open TG-GATES - Regimen: Single
- Format: toxicity, organism-based, Sprague-Dawley
- Set-up: regimen Single, gender Male, age 6 weeks
- experimentalParameters: in vivo, po, 100 mg/kg, 3 h, tissue Plasma, route gavage, dose level Low
measuredParameter: GLC (mg/dL)
Express your answer in mg/dL, writing the number without its unit.

INSERT INTO assay_data (compound, observedmeasurement) VALUES
  ('CNC(=C[N+](=O)[O-])NCCSCc1ccc(CN(C)C)o1 [RANITIDINE]', 190.6),
  ('CN/C(=N/CCSCc1nc[nH]c1C)NC#N [CIMETIDINE]', 195);

Moving on to the next compound.
stdin: # query: GLC of entry Cc1nnc2n1-c1ccc(Cl)cc1C(c1ccccc1Cl)=NC2 [TRIAZOLAM]
stdout: 176.4

* * *

Below, each entry is listed with its recorded Na.
- Species on record: Rattus norvegicus
- assayProtocol: Open TG-GATES - Regimen: Single
- Assay type: toxicity, organism-based, Sprague-Dawley
- Design: regimen Single, gender Male, age 6 weeks
- experimentalParameters: in vivo, po, 1000 mg/kg, 3 h, tissue Plasma, route gavage, dose level High
Express your answer in meq/L, writing the number without its unit.

Answered examples (4):
INSERT INTO measurements (compound, observedmeasurement) VALUES
  ('Cc1nnc2n1-c1ccc(Cl)cc1C(c1ccccc1Cl)=NC2 [TRIAZOLAM]', 139.6),
  ('CN/C(=N/CCSCc1nc[nH]c1C)NC#N [CIMETIDINE]', 141.4),
  ('O=C(OC[C@H]1O[C@@H](OC(=O)c2cc(O)c(O)c(OC(=O)c3cc(O)c(O)c(O)c3)c2)[C@H](OC(=O)c2cc(O)c(O)c(OC(=O)c3cc(O)c(O)c(O)c3)c2)[C@@H](OC(=O)c2cc(O)c(O)c(OC(=O)c3cc(O)c(O)c(O)c3)c2)[C@@H]1OC(=O)c1cc(O)c(O)c(OC(=O)c2cc(O)c(O)c(O)c2)c1)c1cc(O)c(O)c(OC(=O)c2cc(O)c(O)c(O)c2)c1 [TANNIC ACID]', 138.2),
  ('COC(=O)C1=C(C)NC(C)=C(C(=O)OC)C1c1ccccc1[N+](=O)[O-] [NIFEDIPINE]', 134.8);

Moving on to the next compound.
stdin: # query: Na of entry CNC(=C[N+](=O)[O-])NCCSCc1ccc(CN(C)C)o1 [RANITIDINE]
stdout: 141.4

* * *

- Species on record: Rattus norvegicus
- assayProtocol: Open TG-GATES - Regimen: Daily Repeat
- Type: toxicity, organism-based, Sprague-Dawley
- Set-up: regimen Daily Repeat, gender Male, age 6 weeks
- experimentalParameters: in vivo, po, 0 mg/kg, 72 h, tissue Kidney, route gavage, dose level Control, time 3 day
measuredParameter: KIDNEY_R (g)
Express your answer in g, writing the number without its unit.

INSERT INTO assay_data (compound, unitinfo, observedmeasurement) VALUES
  ('Cc1nnc2n1-c1ccc(Cl)cc1C(c1ccccc1Cl)=NC2', 'g', 1);

stdin: # query: KIDNEY_R of entry NC1=NC(=O)C(c2ccccc2)O1 (centres undefined)
stdout: 1

stdin: # query: KIDNEY_R of entry CC(C)NNC(=O)c1ccncc1
stdout: 1

stdin: # query: KIDNEY_R of entry COC(=O)C1=C(C)NC(C)=C(C(=O)OC)C1c1ccccc1[N+](=O)[O-]
stdout: 1

stdin: # query: KIDNEY_R of entry CN/C(=N/CCSCc1nc[nH]c1C)NC#N
stdout: 1

stdin: # query: KIDNEY_R of entry CCOc1ccc(NC(C)=O)cc1
stdout: 1
